Hey, just so you know, these numbers are from PubChem BioAssay.

Experiment: growth inhibitors of H69AR lung tumor, primary screen, human, duplicate replicates (AID 580);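 also: 100% = mean luminescence of untreated wells and 0% = no signal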
Conditions: H69AR lung tumor cells viability, ATP luminescence, 72 h; at 10 µM
Calls of active or inactive are those of the source.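 The calls were made as follows: active = viability at or under a set limit in both replicates, limit being median viability minus 3 SD (cut at about 48% in these data, passing the limit was not always enough); inconclusive = at or under the limit in just one replicate; inactive = at or above the limit in both replicates.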
# output must be one of true (1) = active, false (0) = inactive

Cc1cc(C)nc(N2CCCC(C(=O)Nc3nc4ccc(S(C)(=O)=O)cc4s3)C2)n1 (centres undefined) | false (0)

Kindly provide the recorded test outcome for the following molecule: CCC(C)NC(=O)C1(C)CCC(=O)N1CCc1ccc(OC)c(OC)c1 (centres undefined)
false (0)

Test call, this molecule: COc1ccc(C(=O)NCc2nnc(SCC(=O)Nc3cc(C)cc(C)c3)o2)cc1OC
false (0)

Hello, I am checking results. What call was entered for Cc1cccc(CCNC(=O)C2CCCN(S(=O)(=O)c3cnc[nH]3)C2)c1 (centres undefined) ?
false (0)

---

Listed here: items and their measured viability.
Test: reversal of MRP1-mediated doxorubicin resistance, pilot screen, H69AR cells, doxorubicin co-treatment (AID 601)
Conditions: H69AR cells, CellTiter-Glo, 72 h; compound alone cytotoxicity; at 10 µM
Value expressed in %; do not type the unit.

Examples with answers:
c1ccc(-c2cn3c4c(sc3n2)CCCC4)cc1 | 39.9
C=CCSC1=C(C#N)C(c2ccccc2OCC)CC(=O)N1 (configuration not stated) | 95.3
C=CCn1c(=O)c2ccccc2n2c(SCC(=O)Nc3cc(C)on3)nnc12 | 98.3
CCOC(=O)c1[nH]c(C)c(C(=O)N2CCN(c3ccc(F)cc3)CC2)c1C | 92.3
CCOC(=O)N1CCC(NC(=O)CS(=O)(=O)Cc2nc(-c3ccccc3C)oc2C)CC1 | 95.7

Form: compound = O=C(c1ccc(S(=O)(=O)N2CCOCC2)cc1)N(c1ccc(F)cc1)C1C=CS(=O)(=O)C1 (configuration not stated) ; viability = 97

Entry c1ccc2ncc(-n3cnnn3)cc2c1 ; viability = 94

---

Experiment: reversal of MRP1-mediated doxorubicin resistance, pilot screen, H69AR cells, doxorubicin co-treatment (AID 601)
Details: H69AR cells, CellTiter-Glo, 72 h; compound alone cytotoxicity; at 10 µM
METRIC_NAME: viability (%)
Only the number, expressed in %, is required.

Just so you know, measured viability for COc1cccc(NS(=O)(=O)c2cc(C)sc2C)c1 came out at 94.3

// CCOC(=O)C1=C(c2ccccc2)N2CCN=C2S1 : viability value = 94.8

Per the records, this molecule ( COCCNC(=O)C(c1ccc(O)cc1)N(Cc1ccco1)C(=O)CCC(=O)Nc1nccs1 (stereo not given) ) has viability equal to 99.5

Recorded result, COc1ccccc1N=Cc1nc(-c2ccccc2)oc1OC(C)=O , viability: 63.1

Item: CC1CCCC(C)N1C(=O)COC(=O)c1ccc[nH]c1=O (stereo not given) | viability: 97.7

Reported viability of CCC1c2ccc(C)n2CCN1C(=O)Nc1ccccc1OC (stereo not given) : 78.9

Noted for COC(=O)CN(c1nc(C)c(Cl)c(OC)n1)S(=O)(=O)c1ccc(C)cc1 : its viability reads 84.9

viability reading for Cc1cnc(-c2nnc(N(C)C(=O)C3CCOC3)s2)cn1 (stereo not given) : 101

Lab book: viability of CCOc1cc(N2CCOCC2)c(OCC)cc1NC(=O)CSc1cccc[n+]1[O-] noted as 86.8

Measured viability of CCCCNC(=O)CN(C1CCCCC1)S(C)(=O)=O : 103
